Assay: reversal of MRP1-mediated doxorubicin resistance, pilot screen, H69AR cells, doxorubicin co-treatment (AID 601)
Conditions: H69AR cells, CellTiter-Glo, 72 h; compound alone cytotoxicity; at 10 µM
The threshold is 80%. Values of viability beneath it are tagged 1.0; values meeting or exceeding it are tagged 0.0.

These solved cases illustrate the format of a correct answer.
[
  {
    "MOLECULE": "CC1=NN(c2ccccc2)C(=O)C1",
    "GROUP_LABEL": 0.0
  },
  {
    "MOLECULE": "O=C(Nc1ccc(N2CCOCC2)cc1)Nc1ccc2nc(-c3ccco3)c(-c3ccco3)nc2c1",
    "GROUP_LABEL": 1.0
  },
  {
    "MOLECULE": "Cc1cccc(N(C)C(=O)c2cc3cc4ccc(C)cc4nc3o2)c1",
    "GROUP_LABEL": 1.0
  }
]

Report whether reported viability is lower than 80% (strictly) for "Cc1nc2nc(-c3cccnc3)nn2c(C)c1Cl" 0.0

Report whether reported viability is lower than 80% (strictly) for CCCCCC1NC(=O)NC1CCCCCC(=O)O (configuration not stated) 0.0

Report whether reported viability is lower than 80% (strictly) for CN1C(=O)C(O)(CC(=O)c2ccc3c(c2)OCO3)c2ccccc21 (configuration not stated) 0.0

Report whether reported viability is lower than 80% (strictly) for "CCOC(=O)CN(C)Cc1c[nH]c2ccccc12" 0.0

Report whether reported viability is lower than 80% (strictly) for "Cc1ccc2c(c1)sc1ncc(NC(=O)c3ccccc3)c(=O)n12" 0.0

Report whether reported viability is lower than 80% (strictly) for "COc1ccc(OC)c(S(=O)(=O)Nc2ccccc2SC)c1" 0.0

Report whether reported viability is lower than 80% (strictly) for COc1ccc(C2/C(=C(/O)c3ccccc3)C(=O)C(=O)N2c2ncccn2)cc1OC (configuration not stated) 0.0

Report whether reported viability is lower than 80% (strictly) for CCOC(=O)C1=C(C)NC(C)=C(C(=O)OC)C1c1cccc([N+](=O)[O-])c1 (configuration not stated) 0.0

Report whether reported viability is lower than 80% (strictly) for "O=C(Nc1ccc(S(=O)(=O)NCCc2ccccc2)cc1)c1ccc(Br)o1" 0.0

Report whether reported viability is lower than 80% (strictly) for "CCN(CC)C(=O)c1ccc(NS(=O)(=O)c2ccccc2)cc1" 0.0

Report whether reported viability is lower than 80% (strictly) for "Cc1ccc(OCCN2CCN(C(=O)CCC(=O)Nc3nnc(C)s3)CC2)cc1" 0.0

Report whether reported viability is lower than 80% (strictly) for "COc1cc(C2Nc3cccc4cccc(c34)N2)cc(OC)c1O" 1.0

Report whether reported viability is lower than 80% (strictly) for "CCSc1nc(-c2ccc(OC)cc2)ccc1C#N" 1.0

Report whether reported viability is lower than 80% (strictly) for Cc1nc(C)c(C(=O)C2=C(O)C(=O)N(CCN3CCOCC3)C2c2ccco2)s1 (configuration not stated) 0.0

###

Assay: 384-well plate pilot, post-Golgi transport modulator project, inhibition of yeast transport mutant growth (AID 636)
Settings: absorbance 615 nm, about 18 h, stronger effect = higher value
We begin with a simple list: items and their reported inhibition.
Form entry: value (%) — number only.

[
  {
    "COMPOUND": "COc1ccccc1NC(=O)NCCCN1CCN(c2cccc(Cl)c2)CC1",
    "QUANTITATIVE_READOUT": 4.4
  },
  {
    "COMPOUND": "OC1(c2cccc(C(F)(F)F)c2)CCNCC1",
    "QUANTITATIVE_READOUT": -8.53
  },
  {
    "COMPOUND": "COc1cccc(CN2C(=O)C3(C(C#N)=C(N)OC4=C3C(=O)CCC4)c3ccccc32)c1 (stereo not drawn)",
    "QUANTITATIVE_READOUT": 84.2
  },
  {
    "COMPOUND": "Cc1cc(C)n(Cc2cc(C)c(Cn3nc(C)cc3C)cc2C)n1",
    "QUANTITATIVE_READOUT": -4.73
  },
  {
    "COMPOUND": "Cn1c(=O)c(=O)n(C)c2cc(S(=O)(=O)N3CCCCC3)ccc21",
    "QUANTITATIVE_READOUT": -3.07
  },
  {
    "COMPOUND": "COc1ccccc1NC(=O)C1=C(C)NC(SCC(=O)c2ccc(C)cc2)=C(C#N)C1c1ccco1 (stereo not drawn)",
    "QUANTITATIVE_READOUT": 1.1
  }
]

GET /value?item= CCCC1O[C@@H]2C[C@H]3[C@@H]4CCC5=CC(=O)C=C[C@]5(C)[C@H]4[C@@H](O)C[C@]3(C)[C@]2(C(=O)CO)O1 (stereo partly drawn) &field=inhibition returns 1.04

GET /value?item= "CCOC(=O)c1cnc2c(OC)cccc2c1N1CCN(c2ccc(OC)cc2)CC1" &field=inhibition returns -3.38

GET /value?item= "COc1ccccc1C(=O)Nc1ccc(N2CCN(Cc3ccccc3)CC2)cc1" &field=inhibition returns -5.2

Origin of the recorded values: PubChem BioAssay
